B1: Osa-1-4 twister ribozyme (parent)
chain: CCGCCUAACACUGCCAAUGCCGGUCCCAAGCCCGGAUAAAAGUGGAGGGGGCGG

- Variants of: B1
- Test Name: self-cleavage, relative activity (ratio to wild type); higher = more cleavage; co-transcriptional
Measurement Label: self-cleavage
I'd appreciate a reply containing only the number, no unit.

Reference set (5 entries):
Q: State the recorded self-cleavage for this entry: C32A C33A
Ans: 0.07

Q: State the recorded self-cleavage for this entry: A29U A41U
Ans: 0.2

Q: State the recorded self-cleavage for this entry: G13U G50A
Ans: 0.03

Q: State the recorded self-cleavage for this entry: C20G U12G
Ans: 0.04

Q: State the recorded self-cleavage for this entry: A39U G30A
Ans: 0.04

New cases:
Q: State the recorded self-cleavage for this entry: C25G G45C
Ans: 0.03

Q: State the recorded self-cleavage for this entry: A29U G35U
Ans: 0.09

Q: State the recorded self-cleavage for this entry: A41U C9U
Ans: 0.78

Q: State the recorded self-cleavage for this entry: A41C G23C
Ans: 0.06

Q: State the recorded self-cleavage for this entry: G13A U43A
Ans: 0.05

Q: State the recorded self-cleavage for this entry: A16U G51C
Ans: 0.16
